experiment: reversal of MRP1-mediated doxorubicin resistance, pilot screen, H69AR cells, doxorubicin co-treatment (AID 601); settings: H69AR cells + 2 uM doxorubicin, CellTiter-Glo, 72 h; measured here: viability with 2 uM doxorubicin; at 10 µM; stronger effect = lower value

- COMPOUND: "COCC(=O)N(C)c1nnc(-c2ccccn2)s1"
  viability [%]: 91.3
- COMPOUND: "O=C(NC1CCCCCCC1)C1CCN(c2nc3ccccc3o2)CC1"
  viability [%]: 94.7
- COMPOUND: "CCOC(=O)C1=C(CSc2nc(C)cc(C)c2C#N)OC(N)=C(C#N)C1c1cccs1 (configuration not stated)"
  viability [%]: 74.5
- COMPOUND: "COc1ccc(N(CC(=O)N2CCCCC2)S(=O)(=O)c2ccccc2)c(OC)c1"
  viability [%]: 89.1
- COMPOUND: "CCOC(=O)C1CCCN(S(=O)(=O)c2cccs2)C1 (configuration not stated)"
  viability [%]: 96.7
- COMPOUND: "CCOC(=O)c1cc2sc(C)cc2n1CC(=O)NCc1ccc(F)cc1"
  viability [%]: 52.3
- COMPOUND: "CC(C)NCC(O)COc1ccc(CC(N)=O)cc1 (configuration not stated)"
  viability [%]: 88.7
- COMPOUND: "Cc1cc(C)c2nc(C(F)(F)F)nc(NCCCN3CCCC3=O)c2c1"
  viability [%]: 92.7
- COMPOUND: "C=C(C)Cn1c(CCCNC(=O)C(C)(C)C)nc2ccccc21"
  viability [%]: 101
- COMPOUND: "O=C(NCc1ccco1)c1cc2sccc2n1Cc1ccccc1"
  viability [%]: 89.7
- COMPOUND: "COc1ccc(S(=O)(=O)Nc2ccccc2OC)cc1C"
  viability [%]: 90.2
- COMPOUND: "CC(=O)Nc1ccc(N=Cc2nc(-c3ccc(C)cc3)oc2O)cc1"
  viability [%]: 92.9
- COMPOUND: "O=C(C1CCCO1)N1CCc2ccccc21 (configuration not stated)"
  viability [%]: 97.8
- COMPOUND: "CN(C)CCCC1(c2ccc(F)cc2)OCc2cc(C#N)ccc21 (configuration not stated)"
  viability [%]: 85.7
- COMPOUND: "O=C(NC1=NCCS1)c1ccc2c(c1)C(=O)N(Cc1ccco1)C2=O"
  viability [%]: 91.8
- COMPOUND: "NC(=O)c1c(NC(=O)Cc2cccs2)sc2c1CCC2"
  viability [%]: 91.3
- COMPOUND: "COC(=O)Nc1nc2ccc(C(=O)c3ccccc3)cc2[nH]1"
  viability [%]: 73.4
- COMPOUND: "CC(=O)Nc1ccc(S(=O)(=O)CCC#N)cc1"
  viability [%]: 98
- COMPOUND: "CCCn1nc(NC(=O)c2cccs2)c2cc3cc(OC)ccc3nc21"
  viability [%]: 81.8
- COMPOUND: "O=S(=O)(c1ccc2c(c1)OCCO2)N(Cc1ccc(F)cc1)Cc1nnc(-c2cccs2)o1"
  viability [%]: 83.4
- COMPOUND: "Cc1csc2ncc(C(=O)Nc3ccccc3Cl)c(=O)n12"
  viability [%]: 44.5
- COMPOUND: "COc1cc(NC2c3ccccc3C(=O)N2c2ccc(C)cn2)cc(OC)c1OC (configuration not stated)"
  viability [%]: 85
- COMPOUND: "Cc1ccc2nsnc2c1S(=O)(=O)N1CCN(Cc2ccc3c(c2)OCO3)CC1"
  viability [%]: 89.3
- COMPOUND: "Cc1ccc(-n2c(N)c(C(N)=O)sc2=S)cc1"
  viability [%]: 88.3
- COMPOUND: "CC(C)=CCSc1nnc(CCNC(=O)OC(C)(C)C)o1"
  viability [%]: 79.3
- COMPOUND: "Cc1cc(S(=O)(=O)N2CCN(c3ncccn3)CC2)ccc1-n1cnnn1"
  viability [%]: 93.7
- COMPOUND: "CCOC(=O)C(NC(=O)CC)(Nc1ccc(S(=O)(=O)Nc2onc(C)c2C)cc1)C(F)(F)F (configuration not stated)"
  viability [%]: 97
- COMPOUND: "COc1ccc(N2CCN(C(=O)Cc3ccc(-n4c(=O)[nH]c5ccccc5c4=O)cc3)CC2)cc1"
  viability [%]: 91.5
- COMPOUND: "Cc1nnc(SC(=O)N2c3ccccc3Sc3ccccc32)s1"
  viability [%]: 1.69
- COMPOUND: "CCOC(=O)c1sc(NC(=O)CSc2nnnn2-c2ccccc2)c(C(=O)OCC)c1C"
  viability [%]: 46.1
- COMPOUND: "OC(CN1CCCCC1)Cn1c(C(F)(F)F)nc2ccccc21 (configuration not stated)"
  viability [%]: 86.4
- COMPOUND: "O=C(OCCCN1C(=O)c2ccccc2C1=O)c1ccco1"
  viability [%]: 93.9
- COMPOUND: "O=C(NC1CC1)c1ccc(S(=O)(=O)NCC2CCCCC2)cc1"
  viability [%]: 97
- COMPOUND: "Cc1nn(C)cc1/C=N/O"
  viability [%]: 96.5
- COMPOUND: "COc1ccc(Br)cc1S(=O)(=O)N1CCOCC1"
  viability [%]: 83.5
- COMPOUND: "COC(=O)c1c(N)sc(C(=O)N2CCOCC2)c1C"
  viability [%]: 91
- COMPOUND: "CC1(C)Cc2noc(N)c2C(C)(C)N1OC(=O)c1cccs1"
  viability [%]: 94.2
- COMPOUND: "CC(C)=CCC(C)(C)C1OCCN1C(=O)c1ccccc1 (configuration not stated)"
  viability [%]: 89.3
- COMPOUND: "O=C(NCCO)c1cc2ccccc2cc1O"
  viability [%]: 115
- COMPOUND: "O=C(CCCSc1nc2ccccc2s1)NC1=NCCS1"
  viability [%]: 97.8
- COMPOUND: "c1ccc(-c2nn3nnnc3c3ccccc23)cc1"
  viability [%]: 90.3
- COMPOUND: "COC(=O)c1cccc(Nc2cc(C)nc(-c3ccccc3O)n2)c1"
  viability [%]: 70.7

Source: PubChem BioAssay
